These data points were gathered from PubChem BioAssay (NCI).

This listing pairs compounds with measured TGI.
Tested on: RPMI-8226 leukemia
ASSAY_OVERVIEW: NCI tumour cell line growth inhibition, 48 h
Report the value in µM with no unit label.

SMILES_STR	TESTED_SYSTEM	ASSAY_ENDPOINT	RECORDED_NUMBER
CNCCCNc1ccnc2cc(Cl)ccc12	RPMI-8226 leukemia	TGI	55.7
NCCCn1c2c(c3ccc([N+](=O)[O-])cc3c1=O)C(=O)c1cc(I)ccc1-2	RPMI-8226 leukemia	TGI	0.265
Oc1oc(C(=C2N=c3ccccc3=N2)c2ccc(Cl)cc2)c(O)c1-c1ccc(Cl)cc1	RPMI-8226 leukemia	TGI	8.12
Cc1cccc(NC2=C(Cl)C(=O)c3nc(C)ccc3C2=O)c1	RPMI-8226 leukemia	TGI	5.17
O=C1c2cccc3cccc(c23)C(=O)N1CCN(CCO)CCO	RPMI-8226 leukemia	TGI	56.4

Consider the record given below.
Problem: Missing value: TGI, RPMI-8226 leukemia, entry COC(=O)C1=CN(CC2=CC(=O)C(C)=CC2=O)C=C(C(=O)OC)C1c1ccccc1OC . Fill in?
Result: 40.7

====

System: T-47D breast
ASSAY_OVERVIEW: NCI tumour cell line growth inhibition, 48 h
Parameter GI50: see the listing below.

Example entries begin here.
> print(dat)
                                   molecule  assay.endpoint       result
1  COc1cc2c(cc1OCCCCCN1CCN(c3ncnc4ccccc34)CC1)N=CC1CCCN1C2=O (stereo unspecified)            GI50      13.9 nM
2                CN(C)CCN1CCC(Cc2ccccc2)CC1            GI50   > 80000 nM
3  C=CC12CCN(CC1)C(C(O)c1ccnc3ccc(OC)cc13)C2 (stereo unspecified)            GI50  > 100000 nM
4  O=C(Nc1ncc(Cc2cccc(C(F)(F)F)c2)s1)c1ccc2c(c1)OCCO2            GI50       606 nM

Problem: Please report the recorded GI50 for COc1nc(=O)n(C2C=CC(=O)O2)cc1F (stereo unspecified) .
Result: 2240 nM

Problem: What do you get for COc1cc(/C=C2\CCCCC3=C2N=C2SC(C)=CN2C3c2cc(OC)c(OC)c(OC)c2)cc(OC)c1OC (stereo unspecified) ?
Result: 566 nM

====

Tested on: HOP-92 NSCLC
ASSAY_OVERVIEW: NCI tumour cell line growth inhibition, 48 h
Where a SMILES comes first, the peptide text is derived from it. [ ]: non-standard residue; d: D form. The star is where a group is joined. Cbz = O=C(OCc1ccccc1)*; Aib = CC(C)(N)C(=O)O; OBn = c1ccc(CO*)cc1
ASSAY_ENDPOINT: TGI

# count of solved cases: 3
COMPOUND	RESULT
COCOCCC#CCO	> 100 µM
CC(C)=CCC1=C(O)c2ccccc2C(=O)C1=O	> 100 µM
Cc1cc(C)nc(NS(=O)(=O)c2ccc(Nc3c4ccccc4nc4c(C(=O)N5CCN(CCO)CC5)cccc34)cc2)n1	> 100 µM

Problem: Record request: TGI value, item CC(NC(=O)C(C)(C)NC(=O)C(CC(=O)OCc1ccccc1)NC(=O)OCc1ccccc1)C(N)=O (stereo not given) (Cbz-Asp(OBn)-[Aib]-Ala-NH2; configuration not given here)
Result: > 100 µM

Problem: Quick one: CC1(C)C=CC(=O)C(O)C(C)(C)C1=O (stereo not given)
Result: > 100 µM

Problem: Similarly, CCc1n[nH]c(=O)n1-c1ccc2ccccc2c1 ?
Result: > 100 µM

Problem: One more compound: COc1cc(C[P+](c2ccccc2)(c2ccccc2)c2ccccc2)cc(OC)c1OC
Result: > 100 µM

Problem: What about this compound? OC(c1cc2cc(Cl)ccc2c2cc(C(F)(F)F)ccc12)C1CCCCN1 (stereo not given)
Result: 2.97 µM

Problem: Check COc1cc(OC)c(OC)cc1/C=N/NC(=O)N/N=C/c1cc(OC)c(OC)cc1OC too.
Result: > 100 µM

Problem: Consider next the compound [N-]=[N+]=NC1(c2ccccc2)C(=O)c2cccc3c2N(CCC3)C1=O (stereo not given) in the same way.
Result: > 100 µM

====

Tested on: HOP-92 NSCLC
ASSAY_OVERVIEW: NCI tumour cell line growth inhibition, 48 h
ASSAY_ENDPOINT: TGI

// below: answered compounds
COMPOUND	RESULT
O=C1C/C(Br)=C\c2ccccc2-c2ccccc21	5.27 µM
Clc1ccc(C=NC23CC4CC(CC(C4)C2)C3)c(Cl)c1	> 10 µM

Please find the next compound below.
Problem: Can you look up the measured TGI of CC[C@]1(O)C[C@H]2CN(CCc3c([nH]c4ccccc34)C(C(=O)OC)(c3cc4c(cc3OC)N(C)[C@H]3[C@@](O)(C(=O)OC)[C@H](OC(C)=O)[C@]5(CC)[C@@H]6C[C@@H]6CN6CC[C@]43[C@@H]65)C2)C1 (some centres not stated) for me?
Result: 0.827 µM

====

Test system: MDA-MB-231 breast
ASSAY_OVERVIEW: NCI tumour cell line growth inhibition, 48 h
GI50 for assorted compounds

Sample records with GI50:
> print(dat)
                                   compound  assay.endpoint     result
1  COC(=O)/C=C/c1cc(OC(C)=O)c2c(c1)C(C(=O)OC)C(c1ccc(OC(C)=O)c(OC(C)=O)c1)O2 (stereo not given)            GI50   0.442 µM
2  COc1ccc(-c2c(C#N)c(N3CCOCC3)nc3[nH]c(=S)[nH]c(=S)c23)cc1OC            GI50    13.9 µM
3  Cc1cccc(NC2=C(Cl)C(=O)c3nc(C)ccc3C2=O)c1            GI50   0.904 µM
4  Nc1nc(Cl)nc2c1ncn2C1CC(O)C(CO)O1 (stereo not given)            GI50  > 79.8 µM

Proceed to the following item.
Problem: # GI50 lookup, item CCOC(=O)c1c(C)c2c(n1Cc1ccccc1)CSCC2=O
Result: 14.7 µM

====

System: PC-3 prostate
ASSAY_OVERVIEW: NCI tumour cell line growth inhibition, 48 h
ASSAY_ENDPOINT: TGI

MOLECULE	TESTED_SYSTEM	RESULT
COc1ccc(-c2c(C#N)c(N3CCOCC3)nc3[nH]c(=S)[nH]c(=S)c23)cc1OC	PC-3 prostate	> 100 µM
CCSc1nc(N=Cc2ccccc2O)c2cn[nH]c2n1	PC-3 prostate	72.7 µM

Problem: Dear colleague, I am looking for the recorded TGI of the following molecule: CC[C@]1(O)C[C@H]2CN(CCc3c([nH]c4ccccc34)C(C(=O)OC)(c3cc4c(cc3OC)N(C)[C@H]3[C@@](O)(C(=O)OC)[C@H](OC(C)=O)[C@]5(CC)[C@@H]6C[C@@H]6CN6CC[C@]43[C@@H]65)C2)C1 (some centres undefined)
Result: > 11.8 µM

Problem: And for Cn1c2ccccc2c2c(=S)c3ccccc3ccc21 ?
Result: > 100 µM

====

Test system: HL-60(TB) leukemia
ASSAY_OVERVIEW: NCI tumour cell line growth inhibition, 48 h; in the data active = GI50 below about 0.43 µM; inactive = the rest
Classes to choose from: active, inactive

Problem: I would be grateful if you could indicate the recorded call for COc1cc2c(cc1OCCCN1CCN(CCCOc3cc4c(cc3OC)C(=O)N3CC(F)(F)C[C@H]3C=N4)CC1)N=C[C@@H]1CC(F)(F)CN1C2=O .
Result: inactive

Problem: Lookup COc1ccc(-c2cc(=O)oc3c4c(ccc23)OCN(Cc2ccc(F)cc2)C4)cc1
Result: inactive

Problem: Quick one: NC(N)=Nc1nc2ccccc2o1
Result: inactive

Problem: Another: Nc1c(C(=O)Nc2ccccn2)sc2nc3c(cc12)C(=O)CCC3
Result: inactive

Problem: # repeat for CN(C)CCN1CCC(Cc2ccccc2)CC1
Result: inactive

Problem: Here is the next molecule: COc1cccc2c1O/C(=C\c1ccc([N+](=O)[O-])s1)C2=O
Result: inactive

Problem: Quick one: O=C(Nc1ncc(Cc2cccc(C(F)(F)F)c2)s1)c1ccc2c(c1)OCCO2
Result: active

Problem: Moving on to COc1ccc(-c2c(C#N)c(N3CCOCC3)nc3[nH]c(=S)[nH]c(=S)c23)cc1OC
Result: inactive

Problem: Moving on to COC(=O)/C=C/c1cc(OC(C)=O)c2c(c1)C(C(=O)OC)C(c1ccc(OC(C)=O)c(OC(C)=O)c1)O2 (stereo unspecified)
Result: active

Problem: Another: O=c1[nH]c(-c2cccc(F)c2)cc2cc(F)ccc12
Result: active

Problem: Follow-up item: CO[C@@H]1CC[C@]2(C)OC[C@H](C)[C@@H]3C[C@@H](C)[C@@H](OC(C)=O)[C@@H]4[C@H]3[C@@H]2O[C@H]4C[C@@]1(C)O
Result: inactive
